Where these numbers come from: patent US11306079B2

Target: PI3Kδ (p110δ/p85α) Recombinant Human Protein (Homo sapiens (Human), UniProt O00329)
Sequence (O00329 whole entry): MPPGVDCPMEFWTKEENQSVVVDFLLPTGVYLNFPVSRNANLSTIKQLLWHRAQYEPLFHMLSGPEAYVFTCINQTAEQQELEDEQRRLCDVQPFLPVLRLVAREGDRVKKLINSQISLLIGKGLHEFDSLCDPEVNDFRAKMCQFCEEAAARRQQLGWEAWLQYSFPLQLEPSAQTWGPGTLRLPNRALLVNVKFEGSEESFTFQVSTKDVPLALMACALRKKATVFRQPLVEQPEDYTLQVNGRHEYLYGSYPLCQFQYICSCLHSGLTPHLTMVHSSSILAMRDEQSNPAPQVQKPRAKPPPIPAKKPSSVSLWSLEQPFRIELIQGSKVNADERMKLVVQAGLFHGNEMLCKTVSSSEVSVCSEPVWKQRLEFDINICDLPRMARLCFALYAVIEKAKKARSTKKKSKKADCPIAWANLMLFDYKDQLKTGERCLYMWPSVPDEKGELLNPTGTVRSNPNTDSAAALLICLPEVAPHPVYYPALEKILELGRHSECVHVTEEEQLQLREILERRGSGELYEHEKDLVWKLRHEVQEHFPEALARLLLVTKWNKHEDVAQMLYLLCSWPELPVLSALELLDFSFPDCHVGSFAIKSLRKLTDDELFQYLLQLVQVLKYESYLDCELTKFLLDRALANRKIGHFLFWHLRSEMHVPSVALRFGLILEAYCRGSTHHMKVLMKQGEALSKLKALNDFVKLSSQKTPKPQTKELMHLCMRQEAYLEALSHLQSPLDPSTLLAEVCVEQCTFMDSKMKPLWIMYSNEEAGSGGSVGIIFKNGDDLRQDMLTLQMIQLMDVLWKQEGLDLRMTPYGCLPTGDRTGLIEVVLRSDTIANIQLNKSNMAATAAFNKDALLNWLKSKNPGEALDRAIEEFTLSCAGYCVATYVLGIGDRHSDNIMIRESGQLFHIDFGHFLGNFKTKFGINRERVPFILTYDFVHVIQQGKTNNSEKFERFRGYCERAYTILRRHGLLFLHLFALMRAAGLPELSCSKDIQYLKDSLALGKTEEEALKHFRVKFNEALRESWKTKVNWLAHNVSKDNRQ
Sequence (P27986 whole entry partner): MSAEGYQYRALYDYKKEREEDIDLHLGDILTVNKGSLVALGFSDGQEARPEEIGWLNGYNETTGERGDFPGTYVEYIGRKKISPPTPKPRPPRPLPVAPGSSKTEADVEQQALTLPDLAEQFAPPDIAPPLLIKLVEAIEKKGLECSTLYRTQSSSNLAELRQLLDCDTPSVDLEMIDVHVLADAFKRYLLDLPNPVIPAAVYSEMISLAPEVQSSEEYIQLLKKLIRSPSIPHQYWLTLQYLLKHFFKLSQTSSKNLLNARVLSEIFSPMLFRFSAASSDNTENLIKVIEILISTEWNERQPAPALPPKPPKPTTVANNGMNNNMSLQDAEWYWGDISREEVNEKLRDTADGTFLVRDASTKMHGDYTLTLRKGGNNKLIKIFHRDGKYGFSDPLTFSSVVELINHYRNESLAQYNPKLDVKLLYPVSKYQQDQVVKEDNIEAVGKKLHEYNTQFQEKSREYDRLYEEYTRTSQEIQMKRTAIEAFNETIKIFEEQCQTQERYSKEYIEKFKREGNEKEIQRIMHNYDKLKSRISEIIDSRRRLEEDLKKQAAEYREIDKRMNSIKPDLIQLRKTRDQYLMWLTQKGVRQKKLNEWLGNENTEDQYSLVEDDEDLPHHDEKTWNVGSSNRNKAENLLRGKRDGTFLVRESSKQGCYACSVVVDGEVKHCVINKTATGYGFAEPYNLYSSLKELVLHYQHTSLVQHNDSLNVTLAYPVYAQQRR
Assay: PI3Kδ Scintillation Proximity Assay
Settings: 20 μM PIP2, 2 μM ATP, 3.4 nM PI3Kδ, 120 min, room temperature
pIC50: −log10 of the molar value. Counter-ions that a name gives are not always drawn.
READOUT NAME: pIC50

Use the examples below as a reference point.
Cc1ncc(-c2nc(-c3cc(S(=O)(=O)NC45COC(CO)(C4)C5)ccc3C)cnc2N)s1 [Example 4, trifluoroacetate salt] ... ≥ 7.00
[2H]C([2H])([2H])c1ccc(S(=O)(=O)NC23CC(C2)N(C(C)C)C3)cc1-c1cnc(N)c(-n2cncn2)n1 [Example 60, Trifluoroacetate Salt] ... ≥ 6.30
Cc1ccc(S(=O)(=O)NC23CC(C#N)(C2)C3)cc1-c1cnc(N)c(-c2cn(C)nc2C)n1 [Example 10, Trifluoroacetate Salt] ... ≥ 7.00

## Input Lookup: pIC50 / PI3Kδ (p110δ/p85α) Recombinant Human Protein (Homo sapiens (Human), UniProt O00329) / Cc1ccc(S(=O)(=O)NC23CCC(C#N)(C2)C3)cc1-c1cnc(N)c(-c2nn[nH]n2)n1 [Example 37, Trifluoroacetate Salt]
## Output ≤ 5.70

## Input Lab note: need pIC50 with PI3Kδ (p110δ/p85α) Recombinant Human Protein (Homo sapiens (Human), UniProt O00329) for entry Cc1ccc(S(=O)(=O)NC23CCN(CC2)C3)cc1-c1cnc(N)c(-n2cccn2)n1 , please look it up.
## Output ≥ 7.00

## Input Can you look up pIC50 on PI3Kδ (p110δ/p85α) Recombinant Human Protein (Homo sapiens (Human), UniProt O00329) for Cc1ccc(S(=O)(=O)NC23CCC(CO)(CC2)OC3)cc1-c1cnc(N)c(-c2ccncc2F)n1 [Example 20, trifluoroacetate salt] ?
## Output ≥ 6.30

## Input Fill in the recorded pIC50 for this compound, with PI3Kδ (p110δ/p85α) Recombinant Human Protein (Homo sapiens (Human), UniProt O00329) as test system: [2H]C([2H])([2H])c1ccc(S(=O)(=O)NC23CCN(CC2)C3)cc1-c1cnc(N)c(-c2cnc(C)s2)n1
## Output ≥ 7.00

## Input Reported pIC50 for PI3Kδ (p110δ/p85α) Recombinant Human Protein (Homo sapiens (Human), UniProt O00329), given Cc1ccc(S(=O)(=O)NC23CCC(O)(CC2)C3)cc1-c1cnc(N)c(-n2cncn2)n1 [Example 26, trifluoroacetate salt] ?
## Output ≥ 7.00

## Input Query pIC50 on PI3Kδ (p110δ/p85α) Recombinant Human Protein (Homo sapiens (Human), UniProt O00329) for [2H]C([2H])([2H])c1ccc(S(=O)(=O)NC23CC(C#N)(C2)C3)cc1-c1cnc(N)c(-n2nccn2)n1 [Example 50, Trifluoroacetate Salt]
## Output ≥ 7.00

## Input pIC50 of Cc1ccc(S(=O)(=O)NC23CNC(C2)C3)cc1-c1cnc(N)c(-n2cccn2)n1 [Example 58, trifluoroacetate salt] on PI3Kδ (p110δ/p85α) Recombinant Human Protein (Homo sapiens (Human), UniProt O00329)?
## Output ≥ 6.30

## Input Look up pIC50 with PI3Kδ (p110δ/p85α) Recombinant Human Protein (Homo sapiens (Human), UniProt O00329) for this compound: Cc1ccc(S(=O)(=O)NC23CC(C(C)(C)O)(C2)C3)cc1-c1cnc(N)c(-n2cncn2)n1 [Example 29, trifluoroacetate salt]
## Output ≥ 6.30

## Input Param readout= pIC50; system= PI3Kδ (p110δ/p85α) Recombinant Human Protein (Homo sapiens (Human), UniProt O00329); entry= CNC(=O)OCC12CC(NS(=O)(=O)c3ccc(C)c(-c4cnc(N)c(-n5cncn5)n4)c3)(C1)C2 [Example 31, Trifluoroacetate Salt] ; returns value.
## Output ≥ 6.30

## Input Value wanted: pIC50 (PI3Kδ (p110δ/p85α) Recombinant Human Protein (Homo sapiens (Human), UniProt O00329)) of entry Cc1ccc(S(=O)(=O)NC23COC(CO)(C2)C3)cc1-c1cnc(N)c(-c2cn(C)nc2C)n1 [Example 14, trifluoroacetate salt]
## Output ≥ 6.30

## Input Recorded pIC50 for [2H]C([2H])([2H])c1ccc(S(=O)(=O)NC23CCN(CC2)C3)cc1-c1cnc(N)c(-c2ccncn2)n1 with PI3Kδ (p110δ/p85α) Recombinant Human Protein (Homo sapiens (Human), UniProt O00329), please?
## Output ≥ 7.00

## Input Notebook entry, PI3Kδ (p110δ/p85α) Recombinant Human Protein (Homo sapiens (Human), UniProt O00329) assay: pIC50 of [2H]C([2H])([2H])c1ccc(S(=O)(=O)NC23CCC(C#N)(C2)C3)cc1-c1cnc(N)c(-c2ccncn2)n1 [Example 72, trifluoroacetate salt] = ?
## Output ≥ 7.00

## Input Request: pIC50, test system PI3Kδ (p110δ/p85α) Recombinant Human Protein (Homo sapiens (Human), UniProt O00329), entry [2H]C([2H])([2H])c1ccc(S(=O)(=O)NC23CCC(C#N)(C2)C3)cc1-c1cnc(N)c(-c2cnco2)n1 [Example 69, trifluoroacetate salt]
## Output ≥ 7.00

## Input pIC50 of [2H]C([2H])([2H])c1ccc(S(=O)(=O)NC23CC(CO)(C2)C3)cc1-c1cnc(N)c(-c2ccnc(SC)n2)n1 on PI3Kδ (p110δ/p85α) Recombinant Human Protein (Homo sapiens (Human), UniProt O00329)?
## Output ≥ 7.00
